Listed next: entries and their corresponding melting point.

| smiles_repr | melting point |
| --- | --- |
| CSc1ncc(C(=O)N(C)C)c(Nc2ccc3[nH]ncc3c2)n1 | 101 to 105 °C |
| CSc1ncc(C(=O)NCCCn2ccnc2)c(Nc2ccc3cn[nH]c3c2)n1 | 230 to 232 °C |
| COCCNC(=O)c1cnc(SC)nc1Nc1ccc2cn[nH]c2c1 | 225 to 228 °C |

====

Listed next: entries and their corresponding melting point.
measured_metric: melting point

| compound | measured_metric | result |
| --- | --- | --- |
| CSc1ncc(C(=O)N2CCN(CCO)CC2)c(Nc2ccc3[nH]ncc3c2)n1 | melting point | 166 to 170 °C |
| COC(=O)[C@@H](NC(=O)c1cnc(SC)nc1Nc1ccc2[nH]ncc2c1)[C@@H](C)O | melting point | 227 to 232 °C |
| CSc1ncc(C(=O)NN2CCOCC2)c(Nc2ccc3[nH]ncc3c2)n1 (hydrate or solvate) | melting point | 239 to 242 °C |
| CSc1ncc(C(=O)NCc2cccnc2)c(Nc2ccc3[nH]ncc3c2)n1 | melting point | 268 to 270 °C |
| CSc1ncc(C(=O)NCCc2ccccn2)c(Nc2ccc3[nH]ncc3c2)n1 | melting point | 220 to 223 °C |
| CSc1ncc(C(=O)NCCN2CCOCC2)c(Nc2ccc3[nH]ncc3c2)n1 | melting point | 113 to 117 °C |
| CSc1ncc(C(=O)NCCc2ccccn2)c(Nc2ccc3cn[nH]c3c2)n1 | melting point | 230 to 231 °C |
| CSc1ncc(C(=O)NN2CCN(C)CC2)c(Nc2ccc3cn[nH]c3c2)n1 | melting point | 244 to 247 °C |
| CSc1ncc(C(=O)N2CCN(C)CC2)c(Nc2ccc3cn[nH]c3c2)n1 | melting point | 102 to 106 °C |
| CSc1ncc(C(=O)N2CCN(CCO)CC2)c(Nc2ccc3cn[nH]c3c2)n1 | melting point | 114 to 117 °C |
| CSc1ncc(C(=O)N2CCN(C)CC2)c(Nc2ccc3[nH]ncc3c2)n1 | melting point | 153 to 155 °C |
| CSc1ncc(C(=O)NCCCn2ccnc2)c(Nc2ccc3[nH]ncc3c2)n1 | melting point | 121 to 125 °C |
| CSc1ncc(C(=O)N(C)C)c(Nc2ccc3cn[nH]c3c2)n1 | melting point | 164 to 166 °C |
| CSc1ncc(C(=O)NN2CCN(C)CC2)c(Nc2ccc3[nH]ncc3c2)n1 | melting point | 251 to 253 °C |
| CSc1ncc(C(=O)NCCN(C)C)c(Nc2ccc3[nH]ncc3c2)n1 | melting point | 111 to 114 °C |
| COC(=O)[C@@H](NC(=O)c1cnc(SC)nc1Nc1ccc2cn[nH]c2c1)[C@@H](C)O | melting point | 226 to 228 °C |
| CSc1ncc(C(=O)NCc2cccnc2)c(Nc2ccc3cn[nH]c3c2)n1 | melting point | 253 to 256 °C |
| CSc1ncc(C(=O)NCCN(C)C)c(Nc2ccc3cn[nH]c3c2)n1 | melting point | 162 to 167 °C |
